Origin of the recorded values: PubChem BioAssay (NCI)

System: SK-MEL-5 melanoma
Protocol Text: NCI tumour cell line growth inhibition, 48 h
Experimental Endpoint: TGI

[
  {
    "Compound": "CC12CC(c3ccccc3O1)C(C(=O)Nc1nccs1)C(=O)N2 (stereo not given)",
    "TGI": "> 100 µM"
  },
  {
    "Compound": "Cc1ccc(N=Nc2c(O)ccc3ccccc23)c(C)c1",
    "TGI": "> 100 µM"
  },
  {
    "Compound": "C/C(N=NS(=O)(=O)c1c(C)cc(C)cc1C)=C1\\C=CC=CN1O",
    "TGI": "> 100 µM"
  },
  {
    "Compound": "C/C(=N\\Nc1nc2cc(F)ccc2s1)c1ccccn1",
    "TGI": "5.49 µM"
  },
  {
    "Compound": "Cc1cc(C)c(-c2c(O)c(Br)c(-c3c(C)cc(C)c(Br)c3C)c(O)c2Br)c(C)c1Br",
    "TGI": "4.24 µM"
  }
]

(Q) Give the value of TGI reported for the following: CCNc1ccc2c(c1)C(=O)N(OS(C)(=O)=O)C2=O
(A) > 100 µM

(Q) Give the value of TGI reported for the following: CCOC(=O)NN1C(=O)C(=P(c2ccccc2)(c2ccccc2)c2ccccc2)C(C(=O)OC)=C1C
(A) > 100 µM

(Q) Give the value of TGI reported for the following: CN1CCC(O)(OC(=O)C(c2ccccc2)C2(O)CCCC2)CC1 (stereo not given)
(A) > 100 µM

(Q) Give the value of TGI reported for the following: COc1ccc(-c2cn3ccnc3c(-c3ccc(Cl)cc3)n2)cc1
(A) 21.1 µM

(Q) Give the value of TGI reported for the following: C/C(=N/NC(N)=S)C(CN1CCOCC1)C(C1=C(O)c2ccccc2OC1)c1ccccc1 (stereo not given)
(A) > 100 µM

* * *

Tested on: CAKI-1 renal
Protocol Text: NCI tumour cell line growth inhibition, 48 h
Experimental Endpoint: TGI (µM)
Form entry: value (µM) — number only.

(Q) Provide TGI, system CAKI-1 renal, entry S=C(Nc1ccc(-c2nc3ccccc3s2)cc1)Nc1ccc(-c2nc3ccccc3s2)cc1
(A) 48.1

(Q) Provide TGI, system CAKI-1 renal, entry Nc1ccccc1SC(/C=C/NNC1=NC(c2ccccc2)C(c2ccccc2)=NN1)c1ccccc1 (stereo not given)
(A) 26.4

* * *

Tested on: A498 renal
Protocol Text: NCI tumour cell line growth inhibition, 48 h
Experimental Endpoint: GI50

[
  {
    "Compound": "CSCc1ncc(-c2ccc(C(F)(F)F)cc2)c(NC2CCCCCC2)n1",
    "GI50": "> 10 µM"
  },
  {
    "Compound": "COc1ccc2c(c1)[n+](=O)c(/C=C/C(=O)c1cc(OC)c(OC)c(OC)c1)c(C)n2[O-]",
    "GI50": "20.5 µM"
  },
  {
    "Compound": "CC(C)(O)c1cc(Nc2cc(Oc3cn(C4CC4)nc3C3CCOCC3)ccn2)ccn1",
    "GI50": "63.1 µM"
  },
  {
    "Compound": "O=C(OCC1=CC(=O)c2ccccc2C1=O)c1ccccc1",
    "GI50": "18.6 µM"
  }
]

(Q) Give the value of GI50 reported for the following: COc1cc(C2CC(c3ccc(Cl)cc3)=NN2C(C)=O)ccc1Oc1ccnc2cc(Cl)ccc12 (stereo not given)
(A) 4.09 µM
